Tested on: D54 LucT luciferase reporter counterscreen, luminescence, 24 h
Experiment: reporter signal increase, D54 LucT cells – cell-based, luminescence, cherry pick, counter-screen for N-linked glycosylation inhibitor project, dose response (AID 624404)
Results filed as inconclusive are left out.
// reported AC35 for each item listed

compound	AC35
COc1cc(/C=C2\SC(=S)N(CCC(=O)N3CCCCC3)C2=O)cc(OC)c1OC	3440 nM
O=C(N/N=C/c1ccc2c(c1)OCO2)C1COc2ccccc2O1 (centres undefined)	187 nM
CC(=O)c1sc(Nc2cccc3ccccc23)nc1C	4070 nM
CC(Nc1nc(-c2cccnc2)nc2ccccc12)c1ccccc1 (centres undefined)	1050 nM
O=C(NCCCN1CCOCC1)c1cc(-c2ccccc2)on1	3040 nM

Please give measured AC35 of the following entry: "Oc1ccc(C2=NNC(=NCc3ccc4c(c3)OCO4)SC2)c(O)c1" 3120 nM

Annotate the compound "Cc1noc(C)c1COc1ccc(C(=O)NNC(=O)c2ccccc2)cc1" with its measured AC35. 271 nM

Name the recorded AC35 of the item "COc1ccc(CCCC(=O)NCc2ccccc2)cc1C" in your answer. 2780 nM

Quick one: give measured AC35 for "CCN1C(=O)CCN(C2CCCC2)c2nc(Nc3ccc(C(=O)NC4CCN(C)CC4)cc3OC)ncc21" 226 nM

Report AC35 for "O=C(/C(=C\c1ccccc1)c1nc2ccccc2[nH]1)c1ccc(Cl)cc1" 306 nM

Return the recorded AC35 value; entry: NC(=O)CC(NC(=O)Cc1ccc(Br)cc1)c1ccc(NC2CC3CCC2C3)c([N+](=O)[O-])c1 (centres undefined) 210 nM

# return recorded AC35 for input "CCOC(=O)c1cnc2c(ccc3ccccc32)c1NCCCN(C)C" 515 nM

Dear colleague, please send me the reported AC35 for "C[C@@]12C(=O)Nc3cc(F)ccc3C(=O)N1[C@H]1c3ccccc3OC[C@@H]1[C@@H]2c1ccccc1" when you can. 1510 nM

Return the recorded AC35 value; entry: COc1cc2c(cc1OC)C(c1ccccc1)N(C(=O)c1ccccc1)CC2 (centres undefined) 321 nM
